B1: ZNF207 (parent)
chain: FQPQPVQPQQGYIPPMAQPGLPPV

variants of: B1; test: protein stability index of a GFP-peptide fusion (GPS, HEK-293T) (PSI 1-6); higher = more stable; details: c terminus: a fixed tail appended;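 further: lentivirally expressed fusions sorted by FACS into six bins by GFP to DsRed ratio, PSI derived from sequencing read proportions per bin multiplied by bin number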
Consider the following variants and their measured protein stability index readings.
# respond with the number and nothing more

P23L    3.04
A17D    3.35
Q7M    3.21
Q2C    2.18
V6Y    2.75
G20S    3.24
P22K    3.4
P22D    3.06

q: Query protein stability index for Q10S
a: 2.86

q: Supply protein stability index value. Item: Q2E
a: 3.98

q: Dear colleague, please send me the reported protein stability index for P3N when you can.
a: 3.55

q: Given the variant V24N , write its reported protein stability index.
a: 2.67

q: Give a short answer stating reported protein stability index for Y12I .
a: 3.29

q: Name the recorded protein stability index of the variant listed here: P5E
a: 3.62

q: Note down protein stability index recorded for Q7I
a: 3.29

q: # return recorded protein stability index for entry P8V
a: 2.92

q: Note protein stability index for the variant shown: P8D
a: 3.32
